# testedSystem: hROMK (human Kir1.1) (Homo sapiens (Human))
# Sequence (P48048 whole entry): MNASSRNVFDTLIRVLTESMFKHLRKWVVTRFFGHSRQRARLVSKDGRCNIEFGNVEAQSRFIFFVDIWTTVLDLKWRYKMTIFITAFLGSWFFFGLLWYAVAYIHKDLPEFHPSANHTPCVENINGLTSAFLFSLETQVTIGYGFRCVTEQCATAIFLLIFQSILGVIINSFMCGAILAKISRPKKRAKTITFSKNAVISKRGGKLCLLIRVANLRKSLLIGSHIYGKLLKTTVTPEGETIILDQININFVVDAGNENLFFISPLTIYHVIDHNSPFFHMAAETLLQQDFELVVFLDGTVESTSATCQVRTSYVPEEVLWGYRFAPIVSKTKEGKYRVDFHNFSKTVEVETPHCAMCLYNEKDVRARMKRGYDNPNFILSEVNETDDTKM
# protocol: cell-based
# protocolConditions: CHO T-Rex hROMK stable cell line; thallium flux; 10-point concentration response curve; read-out: Human ROMK Th Flux IC50
measuredQuantity: IC50
Answer with the value and then the unit.

For orientation, consider the following solved cases.
compound=Cc1cc(-n2cc(CN3CC[C@@H](O)[C@H](c4ccc5c(c4C)COC5=O)C3)nn2)ncc1C#N measuredquantity=IC50 result="52 nM"
compound=Cc1c([C@@H]2CN(Cc3cn(-c4ccc(C(F)F)nc4)cn3)C[C@H](C)N2)ccc2c1COC2=O measuredquantity=IC50 result="43 nM"

Problem: Name the recorded IC50 for COc1nc(-n2cc(CN3C[C@@H](c4ccc5c(c4C)COC5=O)N[C@@H](C)C3)cn2)ccc1C#N .
Result: 44 nM

Problem: Name the recorded IC50 for COc1cc(C#N)ccc1-n1cc(CN2CCO[C@H](c3ccc4c(c3C)COC4=O)C2)cn1 .
Result: 29 nM

Problem: Name the recorded IC50 for Cc1cc(N2CCOC2=O)cc(-n2cc(CN3C[C@@H](c4ccc5c(c4C)COC5=O)N[C@@H](C)C3)cn2)n1 .
Result: 61 nM

Problem: Name the recorded IC50 for Cc1cc(-c2nnc(CN3CC(c4ccc5c(c4C)COC5=O)NC(C)(C)C3)o2)ncc1C#N (single isomer, unassigned) .
Result: 16 nM

Problem: Name the recorded IC50 for Cc1c([C@@H]2CN(Cc3cnc(-n4c(C)nnc4C)nc3)CCN2)ccc2c1COC2=O .
Result: 190 nM
